FYI, the data here is from PubChem BioAssay.

# assay-method-text: VP16 transactivation reporter inhibitors, counter-screen for LRH-1 inverse agonist project, cell-based, luminescence, high throughput (AID 651615)
# measurement-setup: Gal4-VP16 luciferase reporter cells, at 3.6 µM, stronger effect = higher value
The source made the active and inactive calls. No stated cut-off is given here; in the data, active means inhibition above about 33%; inactive means the rest.

| compound | inhibition |
| --- | --- |
| CS(=O)(=O)N1CCN(c2ccccc2NC(=O)c2cc3ccccc3o2)CC1 | -6.66% (inactive) |
| O=C1C(=O)c2cccnc2-c2ncccc21 | 99.6% (active) |
| NC(=O)[C@H]1CC2(CC(c3cccc(NC(=O)COc4ccc(Cl)cc4)c3)=NO2)CN1C(=O)Cc1ccc([N+](=O)[O-])cc1 (stereo partly drawn) | 52.5% (active) |

###

# assay-method-text: VP16 transactivation reporter inhibitors, counter-screen for LRH-1 inverse agonist project, cell-based, luminescence, high throughput (AID 651615)
# measurement-setup: Gal4-VP16 luciferase reporter cells, at 3.6 µM, stronger effect = higher value
Entries and their inhibition
measured-property: inhibition (%)

| compound | obs-value |
| --- | --- |
| O=C(O)c1ccccc1C(=O)Nc1ccc(Oc2cccc3ccccc23)cc1 | 13.4 |
| Cn1cc(/C=C/c2cc[n+](C)cc2)c2cc(Cl)ccc21 | 73.9 |
| NC(=S)Nc1ccc(Oc2ccc(NC(N)=S)cc2)cc1 | -6.09 |
| CCn1cc(CN(C)S(=O)(=O)c2ccc3ccccc3c2)c(C)n1 | 40.2 |
| Cc1cnc(NC(=O)CCCc2nc3ccccc3s2)s1 | 29.4 |
| Cc1ccc(-c2cc(NC=O)c3ncc(-c4cnn(C)c4)n3c2)cc1 | -13.8 |
| O=C(Nc1nc2ccc(F)cc2s1)c1ccc([N+](=O)[O-])o1 | -93.2 |
| CCCCCc1ccc(OCCCC[n+]2ccccc2)c(CCCCC)c1 | 42.3 |
| Cc1csc(NC(=O)CSc2nc3[nH]c(=O)cc(O)c3s2)n1 | -21.4 |
| O=C(CCl)Nc1cccc2ncccc12 | -58.5 |
| O=C1CCCN2N=C(SCC(=O)Nc3ccc(Br)cc3)SC2=N1 | -7.91 |
| Cc1c(Cl)cccc1NC(=O)CNc1ccccc1F | -6.92 |
| NC(=Nc1nc(-c2ccccn2)cc2ccccc12)c1ccccn1 | 59.3 |
| COc1ccc(NS(=O)(=O)c2ccc(NC(=O)c3ccc(N(C)S(C)(=O)=O)cc3)cc2)cc1 | 40.7 |
| COC(=O)c1ccc(NC(=O)CSC2=NCCN2)cc1 | 4.09 |
| CN(C)CCN1C(=O)c2cccc3cc([N+](=O)[O-])cc(c23)C1=O | 68.2 |
| Cn1c(=O)oc2cc(NC(=O)CCl)ccc21 | -65.2 |
| CC(=O)Nc1ccc(NC(=O)COC(=O)c2c(C)nn(-c3ccccc3)c2C)cc1 | -22.5 |
| COc1cccc(-c2nc(NC(C)C)c3ccccc3n2)c1O | -1.3 |
| O=C(CCl)Nc1cc2[nH]c(=O)[nH]c2cc1Br | 2.89 |
| COc1ccc(-n2c(-c3ccc(Br)cc3)c[n+]3c2CCc2ccccc2-3)cc1 | 73 |
| CCCc1cc(NCCOCCO)n2c(nc3ccccc32)c1C#N | -14.6 |
| Cc1cc(C)c2c(N)c(C(=O)Nc3ncc(C)s3)sc2n1 | 4.69 |
| CN(C(=O)OC(C)(C)C)c1ccc(-c2nc3ccccc3s2)cc1 | 78.5 |
| CCOC(=O)C1=Nc2ccccc2C1=[N+]=[N-] | 53.2 |
| COc1ccc(C2=Nn3c([n+](C)c4ccccc43)SC2)cc1 | 78.7 |
| CC1(c2ccc3ccccc3c2)NC(=O)N(CC(=O)N2CCN(Cc3ccccc3)CC2)C1=O (stereo not given) | 48.8 |
| O=C(Nc1ccc(Br)cn1)c1ccc([N+](=O)[O-])o1 | -5.48 |
| COc1cccc2c1C(=O)c1c(O)c3c(c(O)c1C2=O)CC(O)(C(C)=O)CC3OC1CC(N(C)C)C(O)C(C)O1 (stereo not given) | 96.3 |
| O=C(COc1ccc2c3c(c(=O)oc2c1)CCCC3)NCc1ccccn1 | -9.09 |
| CC(NC(=O)c1ccco1)C(c1cccs1)N1CCN(c2ccccc2)CC1 (stereo not given) | -0.25 |
| N#Cc1c(N)c(C#N)c(-c2ccc(O)cc2)c2c1CCCC2 | 9.21 |
| COc1ccc(CNC(=O)c2cccc3c(-c4cnn(C)c4)coc23)cc1OC | 36.4 |
| O=C(Nc1ccc(N2CCOCC2)c(Cl)c1)c1ccc([N+](=O)[O-])o1 | -84.8 |
| COc1ccc2nc(N3CCN(C(=O)c4ccc([N+](=O)[O-])o4)CC3)sc2c1 | -44.3 |
| Cc1ccc(NNC(N)=S)cc1Cl | 1.11 |
| CCOc1ccc(Nc2cc(C)nc(-n3nc(C)cc3C)n2)cc1 | 57.4 |
| CCN1/C(=C/c2ccc3ccccc3[n+]2CC)C=Cc2ccccc21 | 89.3 |
| c1ccc(-c2nc(N3CCCCCC3)c3ccccc3n2)nc1 | 39.3 |
| CCN(CC)S(=O)(=O)c1ccc(N2CCOCC2)c(NC(=O)c2[nH]c(C)c(C(C)=O)c2C)c1 | -200 |
| COc1ccccc1-n1cc([C@@H]2C[C@H]3CN(c4ccccc4)C(=O)[C@]34CCCN24)cn1 | 69.6 |
| CCn1nnnc1SCC(=O)N(C)C1CCS(=O)(=O)C1 (stereo not given) | -0.7 |
| O=C(Nc1cccnc1)c1ccc([N+](=O)[O-])o1 | -15.2 |
| O=C(Nc1ccccc1Cl)/C(Cl)=C(\Cl)S(=O)c1ccccc1 (stereo not given) | 80.8 |
| CCN(Cc1ccccc1)c1ccc(/C=N/NC(=O)c2cccc(S(=O)(=O)N3CCOCC3)c2)cc1 | 28 |

###

Entries and their inhibition
# study-system: Steroidogenic factor 1 (Homo sapiens) (UniProt Q13285)
# Sequence (Q13285 whole entry, looked up): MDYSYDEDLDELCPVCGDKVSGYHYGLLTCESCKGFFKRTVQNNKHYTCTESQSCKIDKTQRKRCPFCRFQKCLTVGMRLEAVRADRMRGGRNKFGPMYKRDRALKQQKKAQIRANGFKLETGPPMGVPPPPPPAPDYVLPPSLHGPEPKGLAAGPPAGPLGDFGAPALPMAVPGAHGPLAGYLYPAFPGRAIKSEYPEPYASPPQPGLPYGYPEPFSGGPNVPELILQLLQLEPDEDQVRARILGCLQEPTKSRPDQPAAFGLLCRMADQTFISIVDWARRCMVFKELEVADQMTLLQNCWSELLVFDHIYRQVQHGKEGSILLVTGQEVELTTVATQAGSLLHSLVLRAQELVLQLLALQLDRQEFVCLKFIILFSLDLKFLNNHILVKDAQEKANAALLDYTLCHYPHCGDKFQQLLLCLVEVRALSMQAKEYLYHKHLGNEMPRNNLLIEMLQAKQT
# assay-method-text: SF1 (NR5A1) inverse agonists, counter-screen for LRH-1 inverse agonist project, cell-based, luminescence, high throughput (AID 651614);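 further: cells cotransfected with StAR promoter reporter and SF1 expression vector; 0% = vehicle on cells with receptor and 100% = vehicle on cells lacking receptor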
# measurement-setup: cell-based SF1 luciferase reporter, at 3.6 µM, stronger effect = higher value

| molecule | study-system | inhibition (%) |
| --- | --- | --- |
| c1ccc(-c2nn(-c3ccccc3)[n+](-c3ccccc3)n2)cc1 | Steroidogenic factor 1 (Homo sapiens) (UniProt Q13285) | 46 |
| CC[C@H]1CN2CCc3cc(OC)c(OC)cc3[C@@H]2C[C@@H]1C[C@H]1NCCc2cc(OC)c(OC)cc21 | Steroidogenic factor 1 (Homo sapiens) (UniProt Q13285) | 97.7 |
| COc1ccccc1NC(=O)CN1CCN(CC(=O)Nc2ccc3c(c2)OCO3)CC1 | Steroidogenic factor 1 (Homo sapiens) (UniProt Q13285) | 50.7 |
| Nc1ncnc2c(C3OC(CO)C(O)C3O)c[nH]c12 (configuration not stated) | Steroidogenic factor 1 (Homo sapiens) (UniProt Q13285) | 98.2 |
| O=C(C1=C[C@@H](C2CCCCC2)C[C@@H](OCc2ccc(CO)cc2)O1)N1CCN(Cc2ccc3c(c2)OCO3)CC1 | Steroidogenic factor 1 (Homo sapiens) (UniProt Q13285) | 40.6 |
| O=C1NC(=O)C(c2ccc(F)cc2)N1 (configuration not stated) | Steroidogenic factor 1 (Homo sapiens) (UniProt Q13285) | 2.89 |
| O=C(c1ccccc1)c1c2c(cc3sc4ccccc4[n+]13)-c1cccc3cccc-2c13 | Steroidogenic factor 1 (Homo sapiens) (UniProt Q13285) | 75.1 |
| O=c1[nH]cnc2c1nnn2C1OC(CO)C(O)C1O (configuration not stated) | Steroidogenic factor 1 (Homo sapiens) (UniProt Q13285) | 71.1 |
| CCC1(O)C(=O)OCc2c1cc1n(c2=O)Cc2cc3cc(O)ccc3nc2-1 (configuration not stated) | Steroidogenic factor 1 (Homo sapiens) (UniProt Q13285) | 91.4 |
| CC1(C)CC(=O)C=C(c2ccc3ncccc3c2)C1 | Steroidogenic factor 1 (Homo sapiens) (UniProt Q13285) | 52.9 |
| O=C(Nc1c(F)cccc1F)c1cnc(N2CCN(c3ccccn3)CC2)c2ccccc12 | Steroidogenic factor 1 (Homo sapiens) (UniProt Q13285) | 35.2 |
| Cc1c(C(C)C)c(=O)n(-c2ccc(S(=O)(=O)NCc3ccccc3)cc2)n1C | Steroidogenic factor 1 (Homo sapiens) (UniProt Q13285) | 55.1 |
| Cc1cc(C(=O)NC2CCCc3c2cnn3-c2cccc(C)c2C)n(C)n1 (configuration not stated) | Steroidogenic factor 1 (Homo sapiens) (UniProt Q13285) | 58.4 |
| CCOc1ccc(NC(=O)COC(=O)CC2CCCCC2)cc1 | Steroidogenic factor 1 (Homo sapiens) (UniProt Q13285) | 44.8 |
| CCN(CC)S(=O)(=O)c1cccc(NC(=O)CNc2cccc(S(=O)(=O)N3CCCC3)c2)c1 | Steroidogenic factor 1 (Homo sapiens) (UniProt Q13285) | 59.8 |
| C/C(=N\NC(N)=S)C1(C)CCCCC1 | Steroidogenic factor 1 (Homo sapiens) (UniProt Q13285) | 53.3 |
| CCCN(CCC)C1=CC(=[N+]2CCCC2)CC(C)(C)C1 | Steroidogenic factor 1 (Homo sapiens) (UniProt Q13285) | 78.8 |
| COc1ccc(OCc2nnc3n2N=C(c2ccc(C)cc2)CS3)cc1 | Steroidogenic factor 1 (Homo sapiens) (UniProt Q13285) | 28.9 |
| CCn1c(C)cc(C(=O)CN2C(=O)c3ccccc3S2(=O)=O)c1C | Steroidogenic factor 1 (Homo sapiens) (UniProt Q13285) | 28.1 |
| O=C(NCc1ccc2c(c1)OCO2)c1cc([N+](=O)[O-])ccc1N1CCCCC1 | Steroidogenic factor 1 (Homo sapiens) (UniProt Q13285) | 47.6 |
| NS(=O)(=O)c1ccc(O)c(NC(=O)c2ccc([N+](=O)[O-])o2)c1 | Steroidogenic factor 1 (Homo sapiens) (UniProt Q13285) | 61.2 |
| O=C(N/N=C/c1ccc(O)cc1O)c1ccc(CN2C(=O)c3cccc4cccc2c34)cc1 | Steroidogenic factor 1 (Homo sapiens) (UniProt Q13285) | 89.2 |
| COc1cc(NC(=O)CN2C(=O)NC(c3ccccc3)(c3ccccc3)C2=O)c(C)cc1[N+](=O)[O-] | Steroidogenic factor 1 (Homo sapiens) (UniProt Q13285) | 35.3 |
| COc1ccc2cc3c(N)nn(C(=O)Cc4c[nH]c5ccccc45)c3nc2c1 | Steroidogenic factor 1 (Homo sapiens) (UniProt Q13285) | 55.5 |
| O=C(CCCN1C(=O)S/C(=C\c2ccccc2)C1=O)NNC(=O)c1ccccc1O | Steroidogenic factor 1 (Homo sapiens) (UniProt Q13285) | 53.8 |
| COc1ccc(Cn2c(-c3ccc(C)cc3)c[n+]3ccccc23)cc1 | Steroidogenic factor 1 (Homo sapiens) (UniProt Q13285) | 79.5 |
| CCc1ccc(-n2cc(-c3ccc(F)cc3)[n+]3c2SCCC3)cc1 | Steroidogenic factor 1 (Homo sapiens) (UniProt Q13285) | 60.9 |
| COc1ccc(-c2c(C)nn3c(NC4CCCC4)cc(C)nc23)cc1OC | Steroidogenic factor 1 (Homo sapiens) (UniProt Q13285) | 54.8 |
| CCN(CC)c1ccc2nc3ccccc3[n+](CC)c2c1 | Steroidogenic factor 1 (Homo sapiens) (UniProt Q13285) | 80.2 |
| O=Cc1ccc2c(c1)CCN2Cc1ccccc1 | Steroidogenic factor 1 (Homo sapiens) (UniProt Q13285) | 55.7 |
| C#CCN(C[C@@H]1[C@@H](OC(=O)Nc2cccs2)[C@@H](OC(=O)Nc2cccs2)Cn2c(=O)ccc(=O)n21)S(=O)(=O)c1ccc(C)cc1 | Steroidogenic factor 1 (Homo sapiens) (UniProt Q13285) | 54.8 |
| CCN(CC)C1=CC(=[N+]2CCCC2)CC(C)(C)C1 | Steroidogenic factor 1 (Homo sapiens) (UniProt Q13285) | 57.5 |
| CCOCC(=O)Nc1ccc([N+](=O)[O-])cc1C | Steroidogenic factor 1 (Homo sapiens) (UniProt Q13285) | 57.7 |
| O=c1c2ccccc2sc2ccc(C#CC3(O)CCCCC3)cc12 | Steroidogenic factor 1 (Homo sapiens) (UniProt Q13285) | 76.5 |
| C=CCn1c(CCNC(=O)c2cccs2)nnc1SCC(=O)Nc1cccc(Cl)c1C | Steroidogenic factor 1 (Homo sapiens) (UniProt Q13285) | 53.4 |
| O=C(Nc1cccc(NC(=O)c2ccc([N+](=O)[O-])o2)c1)c1ccco1 | Steroidogenic factor 1 (Homo sapiens) (UniProt Q13285) | 70.5 |
| O=C(Nc1nc2c(Cl)cccc2s1)c1ccc([N+](=O)[O-])o1 | Steroidogenic factor 1 (Homo sapiens) (UniProt Q13285) | 62.2 |
| COc1ccc(N2CCN(C(=O)c3ccc(CNS(=O)(=O)c4cccc(OC)c4)cc3)CC2)cc1 | Steroidogenic factor 1 (Homo sapiens) (UniProt Q13285) | 29.5 |
| O=C1N(c2ccccc2)C[C@@H]2C[C@@H](c3cc4ccccc4o3)N3CCC[C@@]123 | Steroidogenic factor 1 (Homo sapiens) (UniProt Q13285) | 98 |
| O=C(CCl)Nc1cc(SCC(O)CO)cc([N+](=O)[O-])c1 (configuration not stated) | Steroidogenic factor 1 (Homo sapiens) (UniProt Q13285) | 97.7 |
| Oc1cccc2cc(Nc3ccccc3)cnc12 | Steroidogenic factor 1 (Homo sapiens) (UniProt Q13285) | 84.8 |
| COC(=O)CNC(=O)c1nn(-c2cccc(OC)c2)c(=O)c2ccccc12 | Steroidogenic factor 1 (Homo sapiens) (UniProt Q13285) | 37.3 |
